The reported measurements were obtained from ChEMBL document CHEMBL5291721.

Biological target: Muscarinic acetylcholine receptor M2 (Homo sapiens); also: assay procedure not described here
Sequence (P08172 whole entry): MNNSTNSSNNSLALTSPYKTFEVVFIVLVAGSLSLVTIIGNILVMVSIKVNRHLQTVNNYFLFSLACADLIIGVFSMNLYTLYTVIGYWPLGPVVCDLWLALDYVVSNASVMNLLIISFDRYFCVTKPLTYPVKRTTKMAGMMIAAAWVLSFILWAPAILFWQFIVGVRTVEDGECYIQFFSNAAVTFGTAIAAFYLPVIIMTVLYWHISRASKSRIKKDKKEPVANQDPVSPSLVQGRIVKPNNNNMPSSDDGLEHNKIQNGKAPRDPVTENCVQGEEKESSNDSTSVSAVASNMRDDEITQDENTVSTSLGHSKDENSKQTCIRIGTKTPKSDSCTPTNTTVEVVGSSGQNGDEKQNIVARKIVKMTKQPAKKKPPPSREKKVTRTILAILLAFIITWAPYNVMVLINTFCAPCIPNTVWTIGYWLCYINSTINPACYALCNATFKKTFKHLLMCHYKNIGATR
Format: functional, cell-based
Exercise: state measured AC50 for each of the compounds provided.

compound	AC50
CCN(CC)CCOC(=O)c1ccc(N)cc1Cl	29 µM
CCOc1cc(CC(=O)N[C@@H](CC(C)C)c2ccccc2N2CCCCC2)ccc1C(=O)O [REPAGLINIDE]	> 30 µM
CS(=O)(=O)OCCCCOS(C)(=O)=O	> 30 µM
CCCCC[C@H](O)/C=C/[C@H]1[C@H](O)CC(=O)[C@@H]1C/C=C\CCCC(=O)O	> 30 µM
CC[C@H]1OC(=O)[C@H](C)[C@@H](O[C@H]2C[C@@](C)(OC)[C@@H](O)[C@H](C)O2)[C@H](C)[C@@H](O[C@@H]2O[C@H](C)C[C@H](N(C)C)[C@H]2O)[C@](C)(OC)C[C@@H](C)C(=O)[C@H](C)[C@@H](O)[C@]1(C)O	> 30 µM
CC(CCc1ccccc1)NC(C)C(O)c1ccc(O)cc1 (stereo not drawn)	> 10 µM
CC(C)=CCOc1ccc(/C=C/C(=O)c2ccc(OCC=C(C)C)cc2OCC(=O)O)cc1	> 30 µM

Consider the additional compound presented here.
State its AC50: O=C(O)c1ccccc1Nc1cccc(C(F)(F)F)c1
> 10 µM
